- testedSystem: P2X purinoceptor 4 (Homo sapiens, UniProt Q99571)
- protocolDescription: Antagonist activity at human P2X4R transfected in human 1321N1 cells assessed as inhibition of ATP-induced calcium influx
- Assay type: cell-based
experimentalReadout: IC50 (µM)
Give the quantity in µM, number only.

Examples from the recorded data:
Nc1ncnc2c1ncn2[C@@H]1O[C@H](COP(=O)(O)OP(=O)(O)OP(=O)(O)O)[C@H]2OC3(CCCCC3)O[C@H]21 29.6
CC1(C)O[C@@H]2[C@H](O1)[C@@H](COP(=O)(O)OP(=O)(O)OP(=O)(O)O)O[C@H]2n1cnc2c(N)ncnc21 48
Nc1ncnc2c1ncn2[C@@H]1O[C@H](COP(=O)(O)OP(=O)(O)OP(=O)(O)O)[C@H]2O[C@@H](c3ccccc3)O[C@H]21 11

Pending molecule:
Sure, the documented IC50 for Nc1ncnc2c1ncn2[C@@H]1O[C@H](COP(=O)(O)OP(=O)(O)OP(=O)(O)O)[C@H]2O[C@H](c3ccccc3)O[C@H]21 is 12.4

* * *

inhibition listing for selected compounds.
- testedSystem: P2X purinoceptor 7 (Homo sapiens)
- protocolDescription: Antagonist activity at human P2X7R transfected in human 1321N1 cells assessed as inhibition of Bz-ATP-induced calcium influx relative to control
- Type: cell-based
- assayConditions: concentration not given here
Output spec: scalar in %, unitless text.

Nc1ncnc2c1ncn2[C@@H]1O[C@H](COP(=O)(O)CP(=O)(O)OP(=O)(O)O)[C@H]2OC3(CCCCC3)O[C@H]21 -1
Nc1ncnc2c1ncn2[C@@H]1O[C@H](COP(=O)(O)OP(=O)(O)OP(=O)(O)O)[C@H]2O[C@H](c3ccccc3)O[C@H]21 21
CC1(C)O[C@@H]2[C@H](O1)[C@@H](C(=O)N[C@@H](CCC(=O)O)C(=O)O)O[C@H]2n1cnc2c(N)ncnc21 -9
CC1(C)O[C@@H]2[C@H](O1)[C@@H](COP(=O)(O)OP(=O)(O)OP(=O)(O)O)O[C@H]2n1cnc2c(N)ncnc21 5
Nc1ncnc2c1ncn2[C@@H]1O[C@H](COP(=O)(O)OP(=O)(O)OP(=O)(O)O)[C@H]2OC3(CCCCC3)O[C@H]21 30

Below: the item to evaluate.
Record summary for Nc1ncnc2c1ncn2[C@@H]1O[C@H](COP(=O)(O)OP(=O)(O)OP(=O)(O)O)[C@H]2OCO[C@H]21 : reported inhibition = 21

* * *

- testedSystem: P2X purinoceptor 4 (Homo sapiens, UniProt Q99571)
- Sequence (Q99571 whole entry): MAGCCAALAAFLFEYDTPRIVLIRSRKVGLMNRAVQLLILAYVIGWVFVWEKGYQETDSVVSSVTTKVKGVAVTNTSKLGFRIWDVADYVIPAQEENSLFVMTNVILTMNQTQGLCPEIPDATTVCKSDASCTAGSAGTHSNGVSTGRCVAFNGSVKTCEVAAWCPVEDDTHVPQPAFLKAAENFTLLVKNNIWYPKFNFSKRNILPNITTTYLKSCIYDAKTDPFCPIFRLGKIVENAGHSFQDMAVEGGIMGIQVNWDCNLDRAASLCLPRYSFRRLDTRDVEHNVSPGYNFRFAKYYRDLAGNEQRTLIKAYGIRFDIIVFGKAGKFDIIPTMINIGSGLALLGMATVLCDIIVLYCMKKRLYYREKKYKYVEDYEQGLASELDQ
- protocolDescription: Antagonist activity at human P2X4R transfected in human 1321N1 cells assessed as inhibition of ATP-induced calcium influx
Measured IC50, listed per entry for reference.

Check out these entries, answers already filled in.
CC1(C)O[C@@H]2[C@H](O1)[C@@H](C(=O)N[C@@H](CCC(=O)O)C(=O)O)O[C@H]2n1cnc2c(N)ncnc21 > 100 µM
Nc1ncnc2c1ncn2[C@@H]1O[C@H](COP(=O)(O)OP(=O)(O)OP(=O)(O)O)[C@H]2OCO[C@H]21 > 100 µM

Lab book: IC50 of Nc1ncnc2c1ncn2[C@@H]1O[C@H](COP(=O)(O)CP(=O)(O)OP(=O)(O)O)[C@H]2OC3(CCCCC3)O[C@H]21 noted as > 100 µM

Lab book: IC50 of CC1(C)O[C@@H]2[C@H](O1)[C@@H](COC(=O)c1cc(C(=O)O)c(C(=O)O)cc1C(=O)O)O[C@H]2n1cnc2c(N)ncnc21 noted as > 30 µM

These data points were gathered from ChEMBL document CHEMBL4433213.
